- Tested On: H+/K+-ATPase (Sus scrofa, UniProt P19156)
- Construct: reaction buffer solution (60 mmol/l Tris-HCl buffer solution, pH 7.4) containing hog gastric vesicle
- Sequence (P19156 2-1034 limits assumed): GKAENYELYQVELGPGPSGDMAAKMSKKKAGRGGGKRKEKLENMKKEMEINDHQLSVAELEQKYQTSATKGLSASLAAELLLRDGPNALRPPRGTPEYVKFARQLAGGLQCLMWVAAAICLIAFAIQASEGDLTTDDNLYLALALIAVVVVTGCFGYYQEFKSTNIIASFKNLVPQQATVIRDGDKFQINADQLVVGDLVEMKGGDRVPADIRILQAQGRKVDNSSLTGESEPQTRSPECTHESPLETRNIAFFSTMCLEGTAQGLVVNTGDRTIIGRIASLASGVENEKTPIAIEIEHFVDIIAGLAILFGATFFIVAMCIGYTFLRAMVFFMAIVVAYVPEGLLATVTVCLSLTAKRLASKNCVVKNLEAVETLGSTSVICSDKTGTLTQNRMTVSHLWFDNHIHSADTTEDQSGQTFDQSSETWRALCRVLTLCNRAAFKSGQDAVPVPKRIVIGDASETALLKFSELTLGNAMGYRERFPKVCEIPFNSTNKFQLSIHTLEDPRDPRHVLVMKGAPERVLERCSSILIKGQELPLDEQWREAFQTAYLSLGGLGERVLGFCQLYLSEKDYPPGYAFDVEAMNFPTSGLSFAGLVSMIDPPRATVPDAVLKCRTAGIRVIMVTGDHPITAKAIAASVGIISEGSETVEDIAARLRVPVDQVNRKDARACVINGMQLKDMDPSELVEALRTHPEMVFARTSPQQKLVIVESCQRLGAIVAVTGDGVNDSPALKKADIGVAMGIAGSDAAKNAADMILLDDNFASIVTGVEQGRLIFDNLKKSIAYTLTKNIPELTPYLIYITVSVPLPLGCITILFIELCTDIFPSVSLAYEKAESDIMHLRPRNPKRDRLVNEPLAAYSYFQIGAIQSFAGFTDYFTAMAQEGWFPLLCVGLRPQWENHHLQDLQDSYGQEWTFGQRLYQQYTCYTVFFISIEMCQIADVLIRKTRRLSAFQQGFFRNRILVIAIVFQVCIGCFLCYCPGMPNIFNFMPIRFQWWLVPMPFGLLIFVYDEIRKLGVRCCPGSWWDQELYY
- Sequence (P18434 whole entry partner): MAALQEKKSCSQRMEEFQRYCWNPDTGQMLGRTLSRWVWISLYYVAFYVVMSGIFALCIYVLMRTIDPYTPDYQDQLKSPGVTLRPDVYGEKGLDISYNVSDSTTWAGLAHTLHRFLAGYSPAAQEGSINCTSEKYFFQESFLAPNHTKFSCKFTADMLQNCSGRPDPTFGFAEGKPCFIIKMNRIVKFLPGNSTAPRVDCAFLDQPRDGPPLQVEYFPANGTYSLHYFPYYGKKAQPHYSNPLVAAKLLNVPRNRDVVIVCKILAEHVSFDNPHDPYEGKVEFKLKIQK
- Experiment Notes: Inhibition of proton pump (H+/K+-ATPase) activity in hog gastric vesicles
- Run Conditions: K+ specific H+/K+-ATPase activity, pH 7.4, 37° C. for 40 minutes, malachite green
Measure: IC50 (nM)

CNC1CCc2c1cn(S(=O)(=O)c1ccc(C#N)cc1Cl)c2-c1ccccc1F (centres unmarked); 1260
CN(C)c1cccc(S(=O)(=O)n2cc3c(c2-c2ccccc2F)CCCC3N(C)C)c1 (centres unmarked); 5000
CNC1CCc2c1cn(S(=O)(=O)c1c(Cl)cc(C(F)(F)F)cc1Cl)c2-c1ccccc1F (centres unmarked); 5950
CNC1CCc2c1cn(S(=O)(=O)c1ccc(C)cc1)c2-c1ccccc1F (centres unmarked); 1000

(1) CNC1CCCc2c1cn(S(=O)(=O)c1cccnc1)c2-c1ccccc1C (centres unmarked)
(2) CNC1CCc2c1cn(S(=O)(=O)c1cccc(Cl)c1)c2-c1ccc(O)cc1 (centres unmarked)
## Task I need your help: which of the pair 1 , 2 has higher IC50? Answer with the label corresponding to your selection.
## Result 1
(1: 8000 nM, 2: 470 nM)

* * *

- Tested On: H+/K+-ATPase (Sus scrofa)
- Construct: reaction buffer solution (60 mmol/l Tris-HCl buffer solution, pH 7.4) containing hog gastric vesicle; from tissue; host or cells: hog stomach (gastric vesicles, by centrifugation after Rabon et al. 1988)
- Experiment Notes: Inhibition of proton pump (H+/K+-ATPase) activity in hog gastric vesicles
- Type: biochemical
- Run Conditions: K+ specific H+/K+-ATPase activity, pH 7.4, 37° C. for 40 minutes, malachite green
pIC50: −log10 of the molar value.
Measure: pIC50

Observe how each entry below is paired with its result.
Cc1oc(=O)oc1COC(=O)N(C)C1CCc2c1cn(S(=O)(=O)c1cccc(Cl)c1)c2-c1ccccc1F (centres unmarked); 4.40
CNC1CCc2c1cn(S(=O)(=O)c1cccc(Cl)c1)c2-c1ccccc1C (centres unmarked); 6.21
CN(C)C1CCCc2c1cn(S(=O)(=O)c1cccc(F)c1)c2-c1ccccc1F (centres unmarked); 4.82
CNC1CCCc2c1cn(S(=O)(=O)c1cccc(C)c1)c2-c1ccccc1F (centres unmarked); 5.82

(P) CNC1CCc2c1cn(S(=O)(=O)c1ccc(-c3ccccc3)cc1)c2-c1ccccc1F (centres unmarked)
(Q) CNC1CCc2c1cn(S(=O)(=O)c1cc(Cl)c(Cl)cc1Cl)c2-c1ccccc1F (centres unmarked)
## Task Between the entries labeled P and Q , whose measured pIC50 is lower? Answer with the label corresponding to your selection.
## Result P
(P: 5.06, Q: 6.41)

* * *

- Tested On: H+/K+-ATPase (Sus scrofa)
- Construct: reaction buffer solution (60 mmol/l Tris-HCl buffer solution, pH 7.4) containing hog gastric vesicle
- Experiment Notes: Inhibition of proton pump (H+/K+-ATPase) activity in hog gastric vesicles
- Run Conditions: K+ specific H+/K+-ATPase activity, pH 7.4, 37° C. for 40 minutes, malachite green
pIC50: −log10 of the molar value.
Measure: pIC50

Observe how each entry below is paired with its result.
CNC1CCc2c1cn(S(=O)(=O)c1cccc(Cl)c1)c2-c1cscc1C (centres unmarked) [Example 34]; 6.16
CNC1CCc2c1cn(S(=O)(=O)c1cccs1)c2-c1ccccc1F (centres unmarked) [Example 87]; 5.84

(A) CNC1CCc2c1cn(S(=O)(=O)c1ccc(F)cc1)c2-c1cc(Cl)ccc1Cl (centres unmarked) [Example 61]
(B) CNC1CCc2c1cn(S(=O)(=O)c1cccc(Cl)c1)c2Cc1ccccc1 (centres unmarked) [Example 27]
(C) CNC1CCc2c1cn(S(=O)(=O)c1cccc(Cl)c1)c2-c1ccoc1 (centres unmarked) [Example 31]
## Task Order field: pIC50 | Direction: descending (largest first) As an answer, provide the labels arranged in the order called for.
## Result A, C, B
